Consider the following molecules; for each one, report its Foxtail, Giant plant response rating.
test system: giant foxtail; test: Test A pre-/postemergence herbicide test; type: in vivo, Setaria faberi; settings: Postemergence, 500 g ai/ha; 0 to 100 scale, 0 no effect, 100 complete control
Please give only the number in your answer, with no unit.

Given item `CCNC(=O)c1cccc(NC(=O)c2sc(C(C)(C)C)nc2C)c1` , the value recorded as its Foxtail, Giant plant response rating is 30

Given item `CCn1nc(C(C)(C)C)cc1C(=O)Nc1cc(C(=O)N(C)C)c(F)cc1F` , the value recorded as its Foxtail, Giant plant response rating is 0

Given item `CCOC(=O)c1cccc(NC(=O)c2cc(C(C)(C)C)nn2CC)c1C` , the value recorded as its Foxtail, Giant plant response rating is 20

Given item `CCn1nc(C(C)(C)C)cc1C(=O)Nc1nc(OC)cc(OC)n1` , the value recorded as its Foxtail, Giant plant response rating is 0

Given item `CCn1nc(C(C)(C)C)cc1C(=O)Nc1cc(C(=O)OC)cc(C)n1` , the value recorded as its Foxtail, Giant plant response rating is 15

Given item `CCCCNS(=O)(=O)c1cccc(NC(=O)c2cc(C(C)(C)C)nn2C)c1` , the value recorded as its Foxtail, Giant plant response rating is 0

----------
system: lambsquarters; assay: Test B pre-/postemergence herbicide test; format: in vivo, Chenopodium album; details: postemergence, 125 g ai/ha; visual rating, scale 0 (no effect) to 100 (complete control)
So basically: is Lambsquarters plant response rating under 60? Then TRUE. Not under? Then FALSE.

I wonder whether CCc1nn(C(C)(C)C)cc1C(=O)Nc1ccc(F)c(C(=O)N(CC)CC)c1 [Compound 240] has Lambsquarters plant response rating below 60. Can you tell?
TRUE

I wonder whether CCn1nc(C(C)(C)C)cc1C(=O)Nc1cncc(C(=O)N(C)C)c1 [Compound 258] has Lambsquarters plant response rating below 60. Can you tell?
TRUE

I wonder whether CCCN1CCc2c(NC(=O)c3cc(C(C)(C)C)nn3CC)cccc2C1=O [Compound 65] has Lambsquarters plant response rating below 60. Can you tell?
FALSE

I wonder whether CCNC(=O)c1cccc(NC(=O)c2cn(C(C)(C)C)nc2C)c1 [Compound 183] has Lambsquarters plant response rating below 60. Can you tell?
FALSE

I wonder whether CC(=NO)c1cccc(NC(=O)c2cc(C(C)(C)C)nn2C(C)C)c1 [Compound 110] has Lambsquarters plant response rating below 60. Can you tell?
TRUE

I wonder whether CCNC(=O)c1cccc(NC(=O)c2cn(C(C)(C)C)nc2CC)c1 [Compound 181] has Lambsquarters plant response rating below 60. Can you tell?
FALSE

I wonder whether C=CCN(C)C(=O)c1cccc(NC(=O)c2cc(C(C)(C)C)nn2CC)c1 [Compound 285] has Lambsquarters plant response rating below 60. Can you tell?
TRUE

I wonder whether CC(C)NS(=O)(=O)c1cccc(NC(=O)c2cc(C(C)(C)C)nn2C)c1 [Compound 124] has Lambsquarters plant response rating below 60. Can you tell?
TRUE

----------
test system: redroot pigweed; assay: Test A pre-/postemergence herbicide test; type: in vivo, Amaranthus retroflexus; settings: preemergence, 500 g ai/ha; visual injury, 0 to 100 scale (0 no effect, 100 complete control)
REPORTED_PROPERTY: Pigweed plant response rating
Please give only the number in your answer, with no unit.

Given item `CCOC(=O)c1cccc(NC(=O)c2cc(C(C)(C)C)nn2C)n1` , the value recorded as its Pigweed plant response rating is 95

Given item `CCn1nc(C(C)(C)C)cc1C(=O)Nc1cc(C(=O)N(C)C)c(F)cc1F` , the value recorded as its Pigweed plant response rating is 15

Given item `CCc1nn(C(C)(C)C)cc1C(=O)Nc1cc(C(=S)N(C)C)ccc1F` , the value recorded as its Pigweed plant response rating is 90

Given item `CCNC(=O)c1cccc(NC(=O)c2sc(C(C)(C)C)nc2C)c1` , the value recorded as its Pigweed plant response rating is 95

Given item `C=CCNC(=O)c1cccc(NC(=O)c2sc(C(C)(C)C)nc2CC)c1` , the value recorded as its Pigweed plant response rating is 100

Given item `C=CCN(C)C(=O)c1cccc(NC(=O)c2cc(C(C)(C)C)nn2CC)c1` , the value recorded as its Pigweed plant response rating is 100

Given item `CCc1nn(C(C)(C)C)cc1C(=O)Nc1cc(C(=O)N(CC)CC)ccc1F` , the value recorded as its Pigweed plant response rating is 95

Given item `C=Cn1nc(C(C)(C)C)cc1C(=O)Nc1cccc(C(C)=O)c1` , the value recorded as its Pigweed plant response rating is 40

Given item CCC(C)c1cc(C(=O)Nc2cccc(C(C)=NO)c2)n(C)n1 (centres unmarked) , the value recorded as its Pigweed plant response rating is 20

Given item `CCn1nc(C(C)(C)C)cc1C(=O)Nc1cccc(SC(F)(F)F)c1` , the value recorded as its Pigweed plant response rating is 35

Given item `CCc1nn(C(C)(C)C)cc1C(=S)Nc1cc(C(=S)N(C)C)ccc1F` , the value recorded as its Pigweed plant response rating is 10

----------
Consider the following compounds; for each one, report its Morningglory plant response rating.
system: morningglory; test: Test A pre-/postemergence herbicide test; format: in vivo, Ipomoea spp.; settings: Preemergence, 2000 g ai/ha; 0 to 100 scale, 0 no effect, 100 complete control
Please give only the number in your answer, with no unit.

Noted Morningglory plant response rating for `CCCOC(=O)c1cccc(NC(=O)c2cc(C(C)(C)C)nn2CC)c1C` , tested on morningglory: 30

Noted Morningglory plant response rating for `CCOC(=O)c1ccc(F)c(NC(=O)c2cc(C(C)(C)C)nn2CC)c1` , tested on morningglory: 10

Noted Morningglory plant response rating for `CCN(CC)C(=O)c1cc(NC(=O)c2cc(C(C)(C)C)nn2CC)ccc1F` , tested on morningglory: 40

Noted Morningglory plant response rating for `CCOC(=O)c1cccc(NC(=O)c2cc(C(C)(C)C)nn2CC)c1C` , tested on morningglory: 40

----------
test system: cocklebur; test: Test B pre-/postemergence herbicide test; format: in vivo, Xanthium strumarium; conditions: Postemergence, 500 g ai/ha; visual rating after 13 to 15 days, scale 0 (no effect) to 100 (complete control)
Consider the following compounds; for each one, report its Plant response rating, Cocklebur.
Please give only the number in your answer, with no unit.

Given item `C=Cn1nc(C(C)(C)C)cc1C(=O)Nc1cccc(C(=O)NCC(F)(F)F)c1` , the value recorded as its Plant response rating, Cocklebur is 80

Given item `CC(=NO)c1cccc(NC(=O)c2cc(C(C)(C)C)nn2CCF)c1` , the value recorded as its Plant response rating, Cocklebur is 90

Given item `CC(=NO)c1cccc(NC(=O)c2cc(C(C)(C)C)nn2C(C)C)c1` , the value recorded as its Plant response rating, Cocklebur is 40

Given item `CCn1nc(C(C)(C)C)cc1C(=O)Nc1cccc2c1CCN(C1CC1)C2=O` , the value recorded as its Plant response rating, Cocklebur is 50

Given item `CCOC(=O)c1cc(NC(=O)c2cc(C(C)(C)C)nn2CC)ccc1C` , the value recorded as its Plant response rating, Cocklebur is 30

----------
test system: blackgrass; experiment: Test B postemergence herbicide test; assay type: in vivo, Alopecurus myosuroides; conditions: postemergence, 125 g ai/ha; visual rating, scale 0 (no effect) to 100 (complete control)
Consider the following compounds; for each one, report its Blackgrass plant response rating.
Please give only the number in your answer, with no unit.

Noted Blackgrass plant response rating for CCn1nc(C(C)(C)C)cc1C(=O)Nc1cccc([S+]([O-])C(F)(F)F)c1 (stereo not drawn) , tested on blackgrass: 0

Noted Blackgrass plant response rating for `CCOC(=O)c1cc(N(C(C)=O)C(=O)c2cc(C(C)(C)C)nn2CC)ccc1C` , tested on blackgrass: 20

Noted Blackgrass plant response rating for `CCn1nc(C(C)(C)C)cc1C(=O)Nc1cc(C(=O)NCCOC)ccn1` , tested on blackgrass: 40

Noted Blackgrass plant response rating for `CCN(CC)C(=O)c1cccc(NC(=O)c2nn(C(C)(C)C)cc2C(F)(F)F)c1` , tested on blackgrass: 0

Noted Blackgrass plant response rating for `CCNC(=O)c1cccc(NC(=O)c2sc(C(C)(C)C)nc2CC)c1` , tested on blackgrass: 10

Noted Blackgrass plant response rating for `C#CCn1nc(C(C)(C)C)cc1C(=O)Nc1cccc(C(=O)NCC)c1` , tested on blackgrass: 20

Noted Blackgrass plant response rating for `C=CCNC(=O)c1ccc(F)c(NC(=O)c2sc(CC)nc2C(C)(C)C)c1` , tested on blackgrass: 0

Noted Blackgrass plant response rating for `CCn1nc(C(C)(C)C)cc1C(=O)Nc1cc(C(=O)N2CC=CC2)ccn1` , tested on blackgrass: 40

Noted Blackgrass plant response rating for `CCc1cn(C(C)(C)C)nc1C(=O)Nc1cc(C(=O)N(CC)CC)ccn1` , tested on blackgrass: 0

Noted Blackgrass plant response rating for `CCOC(=O)c1cc(NC(=O)c2cc(C(C)(C)C)nn2CC)ccc1C` , tested on blackgrass: 20

Noted Blackgrass plant response rating for `CCNC(=O)c1cc(NC(=O)c2cc(C(C)(C)C)nn2CC)ccc1F` , tested on blackgrass: 10

Noted Blackgrass plant response rating for `CCCOC(=O)c1cccc(NC(=O)c2cc(C(C)(C)C)nn2CC)c1C` , tested on blackgrass: 0

Noted Blackgrass plant response rating for `C=Cn1nc(C(C)(C)C)cc1C(=O)Nc1cccc(C(C)=O)c1` , tested on blackgrass: 10

Noted Blackgrass plant response rating for `CCn1nc(C(C)(C)C)cc1C(=O)Nc1cccc(SC)c1` , tested on blackgrass: 10

Noted Blackgrass plant response rating for `CCN(C)C(=O)c1cncc(NC(=O)c2cc(C(C)(C)C)nn2CC)c1` , tested on blackgrass: 10

Noted Blackgrass plant response rating for `CCn1nc(C(C)(C)C)cc1C(=O)Nc1cccc(C(=O)N2CCCC2)n1` , tested on blackgrass: 0

Noted Blackgrass plant response rating for `CCn1nc(C(C)(C)C)cc1C(=O)Nc1cc(C(=O)N(C)C)c(F)cc1F` , tested on blackgrass: 0

Noted Blackgrass plant response rating for `CCN(CC)C(=O)c1cccc(NC(=O)c2nn(C(C)(C)C)cc2Br)c1` , tested on blackgrass: 0
